Biological target: Tyrosine-protein phosphatase non-receptor type 11 (Homo sapiens)
Sequence (whole entry): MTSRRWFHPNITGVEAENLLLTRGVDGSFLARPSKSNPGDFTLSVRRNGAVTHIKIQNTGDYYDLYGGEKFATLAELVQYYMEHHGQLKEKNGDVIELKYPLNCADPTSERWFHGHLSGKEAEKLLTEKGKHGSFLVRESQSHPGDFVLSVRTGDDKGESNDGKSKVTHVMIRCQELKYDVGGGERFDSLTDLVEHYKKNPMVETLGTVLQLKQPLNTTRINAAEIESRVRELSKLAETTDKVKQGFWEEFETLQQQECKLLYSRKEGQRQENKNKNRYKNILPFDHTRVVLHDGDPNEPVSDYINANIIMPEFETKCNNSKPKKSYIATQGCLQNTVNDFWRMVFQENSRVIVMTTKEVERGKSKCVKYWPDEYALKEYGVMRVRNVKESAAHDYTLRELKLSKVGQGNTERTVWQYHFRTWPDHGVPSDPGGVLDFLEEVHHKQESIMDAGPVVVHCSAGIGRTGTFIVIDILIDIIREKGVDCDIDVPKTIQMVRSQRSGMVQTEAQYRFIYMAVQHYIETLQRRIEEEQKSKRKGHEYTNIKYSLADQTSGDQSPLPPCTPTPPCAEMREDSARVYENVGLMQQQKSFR
Conditions: filed as negative allosteric modulator
Description: Allosteric inhibition of recombinant human SHP2 assessed as change in melting temperature by SYPRO orange dye based thermal shift assay
observedProperty: ΔTm (°C)

Worked cases, ΔTm given:
- chemSmiles: "CC1(N)CCN(c2cnc(SCc3ccccc3Cl)c(N)n2)CC1"
  observedProperty: "ΔTm"
  recordedNumber: 0.44
- chemSmiles: "CC1(N)CCN(c2cnc(Sc3ccc4ccccc4c3)c(N)n2)CC1"
  observedProperty: "ΔTm"
  recordedNumber: 2.23
- chemSmiles: "CC1(N)CCN(c2cnc(Sc3cccc(Cl)c3)c(N)n2)CC1"
  observedProperty: "ΔTm"
  recordedNumber: 1.7
- chemSmiles: "CC1(N)CCN(c2cnc(Sc3ccccc3Cl)c(N)n2)CC1"
  observedProperty: "ΔTm"
  recordedNumber: 4.13
- chemSmiles: "Nc1nc(N2CCC(O)CC2)cnc1-c1cccc(Cl)c1Cl"
  observedProperty: "ΔTm"
  recordedNumber: 0.36

1 = CC1(N)CCN(c2cnc(-c3cccc(F)c3F)c(N)n2)CC1
2 = Nc1nc(N2CCC(N)CC2)cnc1-c1cccc(Cl)c1Cl
Task: Decide: 1 or 2 , by lowest recorded ΔTm. Let me know the label of the one you choose.
Output: 1

I = Nc1nc(N2CCNCC2)cnc1-c1cccc(Cl)c1Cl
II = CC1(N)CCN(c2cnc(Sc3ccccc3Br)c(N)n2)CC1
III = CC1(N)CCN(c2cnc(SCc3ccccc3)c(N)n2)CC1
IV = CC1(CN)CCN(c2cnc(Sc3cccc(Cl)c3Cl)c(N)n2)CC1
V = Cc1ccccc1Sc1ncc(N2CCC(C)(N)CC2)nc1N
Task: Arrange the 5 compounds by rising ΔTm, starting with the smallest. Dear reader, please state the labels in the requested order.
Output: III, V, I, II, IV
